The entries below are paired with their reported pKd.
molecular target: BRD4 bromodomains (Homo sapiens); construct: fused on or other part: T7 phage capsid protein (phage-display fusion; the phage DNA is read out by qPCR); experiment: BROMOscan bromodomain competition binding assay (DiscoveRx); conditions: Kd from 11 compound concentrations ranging from 0 to 10 μM, read-out: BROMOscan Relative Activity
pKd: −log10 of the molar value.

Field: example entries. Status: answers known.
| CHEM_SMILES | pKd |
| --- | --- |
| Cc1noc(C)c1-c1ccc2nc(C(=O)NC3CCS(=O)(=O)CC3)nc(NC3(c4cccc(Cl)c4)CC3)c2c1 | > 6.30 |
| Cc1noc(C)c1-c1ccc2nc(C(=O)N3CCc4c(cnn4C)C3)nc(N3CCOC[C@@H]3c3ccccc3)c2c1 | 5.30 to 6.30 |
| CN1CCC(NC(=O)c2cc(NCc3cccc(Cl)c3)c3cc(-c4ccc(=O)n(C)c4)ccc3n2)CC1 | > 6.30 |

Now let's try a different one.
Fill in the blank: the reported pKd of `Cc1noc(C)c1-c1ccc2nc(N3CCN(CC(N)=O)CC3)nc(NCc3cncc(Cl)c3)c2c1` is ____.
> 6.30

----------
target: BRD4 bromodomains (Homo sapiens); construct: fused on or other part: T7 phage capsid protein (phage-display fusion; the phage DNA is read out by qPCR); experiment: BROMOscan bromodomain competition binding assay (DiscoveRx); conditions: Kd from 11 compound concentrations ranging from 0 to 10 μM, read-out: BROMOscan Relative Activity
pKd: −log10 of the molar value.
The entries below are paired with their reported pKd.

Field: example entries. Status: answers known.
| CHEM_SMILES | ASSAY_TARGET | REPORTED_MEASUREMENT |
| --- | --- | --- |
| CNC(=O)Cn1cc(-c2nc(NCc3cncc(Cl)c3)c3cc(-c4c(C)noc4C)ccc3n2)cn1 | BRD4 bromodomains (Homo sapiens) | > 6.30 |
| Cc1noc(C)c1-c1ccc2nc(C(=O)N[C@H]3C[C@H](O)C3)nc(NCc3cccc(Cl)c3)c2c1 | BRD4 bromodomains (Homo sapiens) | > 6.30 |
| Cc1noc(C)c1-c1ccc2nc(C(=O)NCc3cnn(C)c3)nc(NCc3cccc(Cl)c3)c2c1 | BRD4 bromodomains (Homo sapiens) | > 6.30 |
| Cn1cc(-c2ccc3nc(N4CCN(CC(N)=O)CC4)nc(NCc4cccc(Cl)c4)c3c2)ccc1=O | BRD4 bromodomains (Homo sapiens) | > 6.30 |
| CN(C)CCN1CCN(c2nc(NCc3cccc(Cl)c3)c3cc(-c4ccnc(O)c4)ccc3n2)CC1 | BRD4 bromodomains (Homo sapiens) | < 5.30 |

Fill in the blank: the reported pKd of `Cc1noc(C)c1-c1ccc2nc(C(=O)NC3CCC(F)(F)CC3)nc(NCc3cccc(Cl)c3)c2c1` is ____.
5.30 to 6.30

Okay, and `Cc1ncsc1CNC(=O)c1nc(NCc2cccc(Cl)c2)c2cc(-c3c(C)noc3C)ccc2n1` ?
> 6.30

Okay, and `Cc1noc(C)c1-c1ccc2nc(-c3cnn(CS(C)(=O)=O)c3)nc(N3CCOC[C@@H]3c3ccccc3)c2c1` ?
> 6.30

Okay, and `CC(=O)N1CC(n2cc(-c3nc(N4CCOC[C@@H]4c4ccccc4)c4cc(-c5c(C)noc5C)ccc4n3)cn2)C1` ?
> 6.30

Okay, and `Cc1noc(C)c1-c1ccc2nc(C(=O)NCc3cccnc3)nc(NCc3cccc(Cl)c3)c2c1` ?
> 6.30

----------
biological target: BRD4 bromodomains (Homo sapiens); construct: fused on or other part: T7 phage capsid protein (phage-display fusion; the phage DNA is read out by qPCR); assay: BROMOscan bromodomain competition binding assay (DiscoveRx); conditions: Kd from 11 compound concentrations ranging from 0 to 10 μM, read-out: BROMOscan Relative Activity
The entries below are paired with their reported Kd.

Field: example entries. Status: answers known.
| MOLECULE | Kd |
| --- | --- |
| Cn1cc(-c2ccc3nc(N4CCN(C(=O)CN)CC4)nc(NCc4cccc(Cl)c4)c3c2)ccc1=O [Example 107] | < 500 nM |
| Cc1noc(C)c1-c1ccc2nc(Cl)nc(NCc3cccc(Cl)c3)c2c1 [Example 1] | 500 to 5000 nM |
| Cc1noc(C)c1-c1ccc2nc(-c3cnn(CCO)c3)nc(NCc3cccc(Cl)c3)c2c1 [Example 48] | < 500 nM |

What value of Kd on BRD4 bromodomains (Homo sapiens) does Cc1noc(C)c1-c1ccc2nc(N3CCN(C(=O)C4CC4)CC3)nc(NCc3cccc(Cl)c3)c2c1 [Example 17] have?
< 500 nM

Okay, and Cc1noc(C)c1-c1ccc2nc(-c3cnn(CC(C)(C)O)c3)nc(N3CCOC[C@H]3c3ccccc3)c2c1 [Example 263] ?
< 500 nM

Okay, and Cc1noc(C)c1-c1ccc2nc(NCCCO)nc(NCc3cccc(Cl)c3)c2c1 [Example 13] ?
< 500 nM

Okay, and Cc1noc(C)c1-c1ccc2nc(N3CCN(CC(C)(C)O)CC3)nc(NCc3cncc(Cl)c3)c2c1 [Example 136] ?
< 500 nM

Okay, and Cc1noc(C)c1-c1ccc2nc(N3CCC(S(C)(=O)=O)CC3)nc(NCc3cccc(Cl)c3)c2c1 [Example 153] ?
< 500 nM

Okay, and Cc1n[nH]c(C)c1-c1ccc2nc(N3CCN(CCN(C)C)CC3)nc(NCc3cccc(Cl)c3)c2c1 [Example 65] ?
500 to 5000 nM

Okay, and Cc1noc(C)c1-c1ccc2nc(C(=O)NC3CS(=O)(=O)C3)nc(N3CCOC[C@@H]3c3ccccc3)c2c1 [Example 315] ?
< 500 nM

Okay, and Cn1cc(-c2ccc3nc(-c4cnn(CC(N)=O)c4)nc(NCc4cccc(Cl)c4)c3c2)ccc1=O [Example 101] ?
< 500 nM

Okay, and Cc1noc(C)c1-c1ccc2nc(C(=O)NCc3ccncc3)nc(NCc3cccc(Cl)c3)c2c1 [Example 171] ?
< 500 nM

Okay, and Cc1noc(C)c1-c1ccc2nc(N3CCN(C(=O)CO)CC3)nc(NCc3cccc(Cl)c3)c2c1 [Example 36] ?
< 500 nM
